B1: DLC1 (parent)
chain: NDDSADYQHFLQDCVDGLFKEVKE

Variants of: B1
assay.summary: protein stability index of a GFP-peptide fusion (GPS, HEK-293T) (PSI 1-6); higher = more stable;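 note: lentivirally expressed fusions sorted by FACS into six bins by GFP to DsRed ratio, PSI derived from sequencing read proportions per bin multiplied by bin number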
conditions: c terminus: a fixed tail appended
Mark criterion not met for protein stability index values under 3, and criterion met for everything at or above.

Assess whether reported protein stability index for S4I sits at 3 or higher.
criterion not met

Assess whether reported protein stability index for V15N sits at 3 or higher.
criterion met

Now consider the entry below.
Assess whether reported protein stability index for L11N sits at 3 or higher.
criterion met
